All values here come from patent US10081629B2.

Test: Pharmacokinetics assay in rats
Type: in vivo
Settings: both sexes, Sprague-Dawley, rat, plasma, po; SD rats, intragastric, 5 mg/kg; read-out: Area Under Curve AUC
Protocol: Rats were used as test animals. The drug concentration in plasma at different time points was determined by LC/MS/MS after administration of the compounds of Example 8, Example 11, Example 14, Example 17, Example 20, Example 27, Example 33, Example 35, Example 36, Example 37 and Example 48 to rats. The pharmacokinetic behavior of the present compounds was studied and evaluated in rats. […] Plasma samples were analyzed after pretreatment by protein precipitation.
valueType: AUC (ng·h/mL)

{"columns": ["compound", "unitSpec", "valueObserved"],
 "data": [
  ["COCCn1c(-c2ccc(C(F)(F)F)cc2)cc2cc(NC(=O)c3cc(CNC(=O)C(C)(C)F)cnc3C(F)F)ccc21 [Example 27]", "ng·h/mL", 1180],
  ["Cn1c(-c2cccc(Cl)c2)cc2nc(NC(=O)c3cc(CNC(=O)C(C)(C)F)cnc3C(F)F)ccc21 [Example 35]", "ng·h/mL", 37400],
  ["Cn1c(-c2cccc(Cl)c2)cc2cc(NC(=O)c3cc(CNC(=O)C(C)(C)F)cnc3C(F)F)ccc21 [Example 33]", "ng·h/mL", 5720],
  ["CCn1c(-c2ccc(C(F)(F)F)cc2)cc2cc(NC(=O)c3cc(CNC(=O)C(C)(C)F)cnc3C(F)F)ccc21 [Example 17]", "ng·h/mL", 2000],
  ["CCn1c(-c2cccc(Cl)c2)cc2cc(NC(=O)c3cc(CNC(=O)C(C)(C)F)cnc3C(F)F)ccc21 [Example 20]", "ng·h/mL", 8240],
  ["CC(C)(F)C(=O)NCc1cnc(C(F)F)c(C(=O)Nc2ccc3oc(-c4cccc(C(F)(F)F)c4)cc3c2)c1 [Example 48]", "ng·h/mL", 2260],
  ["Cn1c(-c2ccc(F)cc2)cc2cc(NC(=O)c3cc(CNC(=O)C(C)(C)C)ccc3Cl)ccc21 [Example 11]", "ng·h/mL", 7230]
]}

* * *

test: Pharmacokinetics assay in rats; assay type: in vivo; conditions: both sexes, Sprague-Dawley, rat, plasma, po; SD rats, intragastric, 5 mg/kg; read-out: Mean Residence Time MRT
Decision: MRT beneath 8 h gives 1 (yes); MRT meeting or exceeding 8 h gives 0 (no).

{"columns": ["molecule", "label"],
 "data": [
  ["Cn1c(-c2cccc(Cl)c2)cc2cc(NC(=O)c3cc(CNC(=O)C(C)(C)F)cnc3C(F)F)ncc21 [Example 36]", "1 (yes)"],
  ["CCn1c(-c2cccc(Cl)c2)cc2nc(NC(=O)c3cc(CNC(=O)C(C)(C)F)cnc3C(F)F)ccc21 [Example 37]", "1 (yes)"],
  ["Cn1c(-c2cccc(Cl)c2)cc2nc(NC(=O)c3cc(CNC(=O)C(C)(C)F)cnc3C(F)F)ccc21 [Example 35]", "0 (no)"],
  ["CCn1c(-c2cccc(Cl)c2)cc2cc(NC(=O)c3cc(CNC(=O)C(C)(C)F)cnc3C(F)F)ccc21 [Example 20]", "0 (no)"],
  ["Cn1c(-c2ccc(F)cc2)cc2cc(NC(=O)c3cc(CNC(=O)C(C)(C)C)ccc3Cl)ccc21 [Example 11]", "0 (no)"],
  ["Cn1c(-c2cccc(Cl)c2)cc2cc(NC(=O)c3cc(CNC(=O)C(C)(C)F)cnc3C(F)F)ccc21 [Example 33]", "1 (yes)"],
  ["CC(C)(F)C(=O)NCc1cnc(C(F)F)c(C(=O)Nc2ccc3oc(-c4cccc(C(F)(F)F)c4)cc3c2)c1 [Example 48]", "1 (yes)"],
  ["Cn1c(-c2ccc(Cl)cc2)cc2cc(NC(=O)c3cc(CNC(=O)C(C)(C)F)cnc3C(F)F)ccc21 [Example 14]", "0 (no)"],
  ["COCCn1c(-c2ccc(C(F)(F)F)cc2)cc2cc(NC(=O)c3cc(CNC(=O)C(C)(C)F)cnc3C(F)F)ccc21 [Example 27]", "1 (yes)"],
  ["CCn1c(-c2ccc(C(F)(F)F)cc2)cc2cc(NC(=O)c3cc(CNC(=O)C(C)(C)F)cnc3C(F)F)ccc21 [Example 17]", "0 (no)"]
]}
